Where do the numbers come from? From patent US10138207B2.

- measuredTarget: μ-opioid receptor (Homo sapiens, UniProt P35372)
- Sequence (P35372 whole entry, species assumed): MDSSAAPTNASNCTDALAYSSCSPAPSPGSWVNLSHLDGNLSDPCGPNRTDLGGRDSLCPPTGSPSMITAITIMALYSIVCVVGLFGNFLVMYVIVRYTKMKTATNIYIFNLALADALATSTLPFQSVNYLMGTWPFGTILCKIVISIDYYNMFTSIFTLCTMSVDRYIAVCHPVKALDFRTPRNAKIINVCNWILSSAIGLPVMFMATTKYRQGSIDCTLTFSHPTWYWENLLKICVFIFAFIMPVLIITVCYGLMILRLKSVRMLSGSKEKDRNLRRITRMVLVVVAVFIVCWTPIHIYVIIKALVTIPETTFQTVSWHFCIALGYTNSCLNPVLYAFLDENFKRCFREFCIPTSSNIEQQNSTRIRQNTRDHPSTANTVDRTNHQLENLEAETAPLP
- experimentalProtocol: μ-opioid receptor [35S]GTPγS functional assay, HEK-293 or CHO cells
- statedConditions: read-out: GTPγS μ Emax
Binary call on Emax: criterion met from 30% upward, criterion not met beneath that.

Consider the following illustrative entries.
>>> group("COc1ccc2c(c1)[C@@]1(C)CCN(C)C(C2)[C@@]1(O)c1cccc(C#N)c1 [Compound 60]")
"criterion met"
>>> group("COc1ccc2c(c1)[C@@]1(C)CCN(C)C(C2)[C@@H]1CNC(=O)Cc1ccc(Cl)c(Cl)c1 [Compound 75]")
"criterion met"
>>> group("C[C@]12CCN(CC3CC3)[C@H](Cc3ccc(O)cc31)[C@H]2NS(=O)(=O)c1cccc(C(F)(F)F)c1 [Compound 128]")
"criterion met"
>>> group("CN1CC[C@]2(C)c3cc(O)ccc3CC1C2N(C)C(=O)c1ccccc1C(=O)O (stereo in doubt) [Compound 49]")
"criterion met"
>>> group("COC(=O)c1cccc([C@]2(O)C3Cc4ccc(OC)cc4[C@@]2(C)CCN3C)c1 [Compound 62]")
"criterion not met"

Record CN1CC[C@]2(C)c3cc(O)ccc3CC1[C@@H]2COc1cncc(C(=O)O)c1 [Compound 34] ; criterion: Emax no lower than 30%. Met?
criterion not met

Determine whether this compound has Emax no lower than 30%: CN1CC[C@]2(C)c3cc(O)ccc3CC1[C@@H]2C(=O)Nc1ccc(C(=O)O)cc1 [Compound 52]
criterion met

For this compound, is measured Emax 30% or higher? CN1CC[C@@]2(C)c3cc(O)ccc3C[C@@H]1[C@H]2NCCc1ccc(S(N)(=O)=O)cc1 [Compound 94]
criterion met

###

- measuredTarget: μ-opioid receptor (Homo sapiens)
- experimentalProtocol: μ-opioid receptor radioligand dose-displacement binding assay ([3H]-diprenorphine)
- Design: expressed in transfected cells; host or cells: HEK-293 or CHO
- statedConditions: HEK-293 or CHO cells; read-out: Ki Opioid Receptor μ
Parameter pKi: see the listing below.
Keep it numeric: pKi is minus log10 of the concentration in mol/L.

Consider the worked cases shown below.
>>> measuredresult("CN(C(=O)/C=C/c1ccoc1)[C@H]1C2Cc3ccc(O)cc3[C@@]1(C)CCN2CC1CC1")
8.75
>>> measuredresult("COc1ccc2c(c1)[C@@]1(C)CCN(CC3CC3)C(C2)C1N(C)C(=O)/C=C/c1ccoc1 (stereo in doubt)")
6.63
>>> measuredresult("CN1CC[C@]2(C)c3cc(O)ccc3C[C@H]1[C@@H]2NCCc1ccc(S(N)(=O)=O)cc1")
5.75

May I ask what pKi has been recorded for CN1CC[C@]2(C)c3cc(O)ccc3C[C@H]1[C@H]2NCCc1ccc(S(N)(=O)=O)cc1 ?
5.43

Recorded pKi of CN1CC[C@@]2(C)c3cc(O)ccc3C[C@@H]1[C@H]2NCCc1ccc(S(N)(=O)=O)cc1 , please.
7.43

# input molecule: CN1CC[C@@]2(C)c3cc(O)ccc3C[C@@H]1[C@@H]2NCCc1ccc(S(N)(=O)=O)cc1 ; wanted: its pKi
7.26

###

Reported log10 of Ki by item:
- measuredTarget: κ opioid receptor (Homo sapiens, UniProt P41145)
- Sequence (P41145 whole entry): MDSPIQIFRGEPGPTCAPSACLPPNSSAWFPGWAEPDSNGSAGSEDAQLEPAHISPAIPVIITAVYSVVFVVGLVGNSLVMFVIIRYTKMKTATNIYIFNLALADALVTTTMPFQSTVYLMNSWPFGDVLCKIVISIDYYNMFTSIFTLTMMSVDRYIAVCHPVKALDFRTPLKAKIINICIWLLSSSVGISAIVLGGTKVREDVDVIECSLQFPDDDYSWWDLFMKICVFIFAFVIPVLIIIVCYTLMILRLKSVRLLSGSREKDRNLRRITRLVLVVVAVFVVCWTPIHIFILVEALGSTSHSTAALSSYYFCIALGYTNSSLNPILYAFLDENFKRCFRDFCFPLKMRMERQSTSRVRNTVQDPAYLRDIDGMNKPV
- experimentalProtocol: biochemical
- Format: binding
- Design: expressed in transfected cells; host or cells: HEK 293 (in-house membrane prep)
- statedConditions: HEK-293 or CHO cells
Short version: log10 scale, Ki, nM.

>>> measuredresult("CN1CCC2(C)C(=NO)C1Cc1ccc(O)cc12 (stereo not shown)")
3.75
>>> measuredresult("COc1ccc2c(c1)C1(C)CCN(CCC(C(=O)N(C)C)(c3ccccc3)c3ccccc3)C(C2)C1=NO (stereo not shown)")
3.93
>>> measuredresult("COc1ccc2c(c1)[C@@]1(C)CCN(CC3CC3)[C@H](C2)[C@H]1N(C)C(=O)/C=C/c1ccoc1")
2.85
>>> measuredresult("CN1CC[C@]2(C)c3cc(O)ccc3CC1C2N(C)C(=O)Nc1ccc(C#N)cc1 (stereo in doubt)")
1.25
>>> measuredresult("COc1ccc2c(c1)[C@@]1(C)CCN(C)C(C2)[C@H]1N(C)C(=O)/C=C/c1ccoc1")
3.29
>>> measuredresult("CN(C(=O)/C=C/c1ccoc1)[C@H]1C2Cc3ccc(O)cc3[C@@]1(C)CCN2CC1CC1")
-0.82
>>> measuredresult("CN(C(=O)Nc1ccc(C#N)cc1)[C@@H]1C2Cc3ccc(O)cc3[C@@]1(C)CCN2CC1CC1")
1.56
>>> measuredresult("COc1ccc2c(c1)[C@@]1(C)CCN(C)C(C2)[C@@H]1c1cccc(OCc2ccccc2)c1")
3.44
>>> measuredresult("CN(C(=O)Nc1ccc(C#N)cc1)[C@H]1C2Cc3ccc(O)cc3[C@@]1(C)CCN2CC1CC1")
0.08
>>> measuredresult("COc1ccc2c(c1)[C@@]1(C)CCN(CCC(C(=O)N(C)C)(c3ccccc3)c3ccccc3)C(C2)[C@H]1O")
1.95

Could you share what log10 of Ki was measured for COc1ccc2c(c1)[C@@]1(C)CCN(C)C(C2)C1N1CCCC1 (stereo partly shown) , tested on κ opioid receptor (Homo sapiens, UniProt P41145)?
4.30

Form: Entry = COc1ccc2c(c1)C1(C)CCN(C)C(C2)C1=NO (stereo not shown) | System = κ opioid receptor (Homo sapiens, UniProt P41145) | log10 of Ki = ____
3.41

###

- measuredTarget: κ opioid receptor (Homo sapiens)
- experimentalProtocol: κ-opioid receptor [35S]GTPγS functional assay, U-2 OS cells
- Assay type: biochemical
- Set-up: expressed in transfected cells; host or cells: U-2 OS (in-house membranes)
- statedConditions: U-2 OS cells; relative to U69,593; read-out: GTPγS κ Emax
measuredParameter: Emax (%)
Answer in %, number only, no unit symbol.

Example entries begin here.
>>> measuredresult("C[C@]12CCN(CC3CC3)[C@H](Cc3ccc(O)cc31)[C@H]2NS(=O)(=O)c1cccc(C(F)(F)F)c1 [Compound 128]")
90.7
>>> measuredresult("CN1CC[C@@]2(C)c3cc(O)ccc3C[C@@H]1[C@@H]2N(C)CC1CCN(C(=O)OC(C)(C)C)CC1 [Compound 108]")
18.8
>>> measuredresult("C=CC[C@@]12CCN(C)C(Cc3ccc(OC)cc31)[C@@H]2N(C)C(=O)Nc1ccc(C#N)cc1 [Compound 135]")
22
>>> measuredresult("CN1CC[C@@]2(C)c3cc(O)ccc3C[C@@H]1[C@H]2NCCCNC(=O)OC(C)(C)C [Compound 111]")
22.7

Value lookup for Emax; key = C[C@]12CCN(CC3CC3)[C@H](Cc3ccc(O)cc31)[C@@H]2NS(=O)(=O)c1cccc(C(F)(F)F)c1 [Compound 129]
97.3

Quick check: Emax of CN1CC[C@@]2(C)c3cc(O)ccc3C[C@@H]1[C@H]2N(C)C(=O)c1ccc(C(F)(F)F)cn1 [Compound 126] ?
63.7

Requested field: Emax. Item: COc1ccc(CCN[C@H]2[C@H]3Cc4ccc(O)cc4[C@]2(C)CCN3C)cc1 [Compound 100]
45

###

Examples of compounds with documented EC50 follow.
- measuredTarget: κ opioid receptor (Homo sapiens)
- experimentalProtocol: κ-opioid receptor [35S]GTPγS functional assay, U-2 OS cells
- Format: biochemical
- Parameters: expressed in transfected cells; host or cells: U-2 OS (in-house membranes)
- statedConditions: U-2 OS cells; read-out: GTPγS κ EC50
Give the quantity in nM, number only.

>>> measuredresult("CN1CC[C@@]2(C)c3cc(O)ccc3C[C@@H]1[C@@H]2N(C)C(=O)Nc1nc2cc(F)ccc2s1")
4.68
>>> measuredresult("C=CC[C@@]12CCN(C)C(Cc3ccc(OC)cc31)[C@@H]2N(C)C(=O)Nc1ccc(C#N)cc1")
2810
>>> measuredresult("CN1CC[C@@]2(C)c3cc(O)ccc3C[C@@H]1[C@@H]2N(C)CC1CCN(C(=O)OC(C)(C)C)CC1")
3.27
>>> measuredresult("CCC[C@@]12CCN(C)C(Cc3ccc(OC)cc31)[C@@H]2N(C)C(=O)Nc1ccc(C#N)cc1")
3830
>>> measuredresult("C[C@]12CCN(CC3CC3)[C@H](Cc3ccc(O)cc31)[C@H]2NC(=O)c1ccsc1")
0.052
>>> measuredresult("CN1CC[C@@]2(C)c3cc(O)ccc3C[C@@H]1[C@@H]2NC(=O)Nc1nc2cc(F)ccc2s1")
91.8
>>> measuredresult("CN1CC[C@@]2(C)c3cc(O)ccc3C[C@@H]1[C@@H]2N(C)C(=O)c1ccccc1")
383
>>> measuredresult("CN1CC[C@@]2(C)c3cc(O)ccc3C[C@@H]1[C@@H]2N(C)S(=O)(=O)c1cccc(C(F)(F)F)c1")
11.4
>>> measuredresult("CN1CC[C@@]2(C)c3cc(O)ccc3C[C@@H]1[C@@H]2N(C)C(=O)Cc1ccccc1")
90.8
>>> measuredresult("CN1CC[C@@]2(C)c3cc(O)ccc3C[C@@H]1[C@@H]2NCCc1cccs1")
1260

Which EC50 value is on record for CN(C(=O)c1ccccc1)[C@@H]1[C@H]2Cc3ccc(O)cc3[C@]1(C)CCN2CC1CC1 ?
53.4

I have this compound here, CN1CC[C@@]2(C)c3cc(O)ccc3C[C@@H]1[C@H]2NCCc1c[nH]c2ccccc12 , and I need its recorded EC50.
25.4

Form field: reported EC50 of CN1CC[C@@]2(C)c3cc(O)ccc3C[C@@H]1[C@H]2N(C)C(=O)C1CCCCC1
2860

Return reported EC50; argument: CN1CC[C@@]2(C)c3cc(O)ccc3C[C@@H]1[C@@H]2NCCc1ccc(Cl)c(Cl)c1
28.6

Which value of EC50 has been reported for CN1CC[C@@]2(C)c3cc(O)ccc3C[C@@H]1[C@@H]2N(C)C(=O)c1ccsc1 in the records?
680
